Experiment: protein stability index of a GFP-peptide fusion (GPS, HEK-293T) (PSI 1-6); higher = more stable;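 note: 24-mer peptide tiles fused after GFP, lentivirally expressed, FACS-sorted into six equal bins by GFP/DsRed ratio, decoded by Illumina sequencing, PSI is the read-weighted mean bin number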
Conditions: treatment: MLN4924 1 uM, 8 h; c terminus: a fixed tail appended
RECORDED METRIC: protein stability index
Answer with a number only.

# count of solved cases: 2
LEAGADQEHKTDEMHTALMEACMD [ANKRD17] = 5.34
IPAAVLAGFTGSGPIQLWQFLLEL [ETS2] = 2.5

# input for lookup
Which measured protein stability index value corresponds to HGTKNVTNSSSLRLPRQNSDGGQK [WSB1] ?
4.87

---

Measured protein stability index values are reported for all entries that follow.
Experiment: protein stability index of a GFP-peptide fusion (GPS, HEK-293T) (PSI 1-6); higher = more stable
Settings: treatment: MLN4924 1 uM, 8 h; c terminus: a fixed tail appended
Format: numeric value only, no unit, no commentary.

A selection of reference data follows.
MPPGLHHQRKYTQSFCGENIMMPM [ZNF207] = 2.27
EGHQAWIVGIVEKGNRTARIIDKP [SEPHS2] = 2.42
VNAVRKLLIEGRSVNEHTEEGESL [ANKRD17] = 4.79

Kindly consider the entry below.
Quick check: protein stability index of MSAKLGKSSSLLTQTSEECNGILT [ZNF396] ?
4.2
